# Tested on: MDA-MB-468 breast
# PROTOCOL TEXT: NCI-60 one-dose screen, 48 h
# TEST CONTEXT: 10 µM unless noted
The panel holds about 83,000 compounds, 20% with a hit somewhere; the sample as a whole holds those more often. Active and inactive are the calls of the source. How the source made its calls: active means growth percent below 10; inactive means the rest.
# valid calls are active, inactive; nothing else

Field: example entries. Status: answers known.
{"COMPOUND": "Cn1cc(-c2cc3ncnc(Nc4ccc(CC(=O)Nc5cc(C(C)(C)C)nn5C)cc4)c3s2)cn1", "CATEGORY LABEL": "inactive"}
{"COMPOUND": "O=C(Nc1cccc(Cl)c1)Nc1nc2ccc([N+](=O)[O-])cc2s1", "CATEGORY LABEL": "active"}

Field: outcome | Entry: C=C(C)[C@@H]1CC[C@]2(C(=O)NC(C)=O)CC[C@]3(C)[C@H](CC[C@@H]4[C@@]5(C)CCCNC(C)(C)[C@@H]5CC[C@]43C)[C@@H]12 active

Field: outcome | Entry: O=S1(=O)NCCCN1CCNc1nccc(-c2c(-c3cccc(O)c3)nc3sccn23)n1 inactive
